tested on: Aspergillus niger; experiment: Fungicidal activity against Aspergillus niger assessed as growth inhibition at 10 ug/ml after 7 days; assay type: functional; conditions: 168 h, read-out: IZ
Kindly supply the reported zone of inhibition at 10 µg/mL values for the records listed here.
Note: unit mm is implicit; provide only the numeric part.

Incoming: // zone of inhibition at 10 µg/mL lookup, key: Cc1nc(Nc2ccccc2)nc(C)c1C#N
Outgoing: 1.4

Incoming: // zone of inhibition at 10 µg/mL lookup, key: Cc1nc(Nc2ccccc2)nc2c1C(=N)C(C#N)CN(C(=O)c1ccccc1)C2 (stereo unspecified)
Outgoing: 1

Incoming: // zone of inhibition at 10 µg/mL lookup, key: CC(=O)N(c1ccccc1)c1nc(C)cc(C)n1 [N-ACETYL PYRIMETHANIL]
Outgoing: 2.1

Incoming: // zone of inhibition at 10 µg/mL lookup, key: Cc1cc(CBr)nc(Nc2ccccc2)n1
Outgoing: 1.5

Incoming: // zone of inhibition at 10 µg/mL lookup, key: Cc1nc(Nc2ccccc2)nc(C)c1Br
Outgoing: 1.6

Incoming: // zone of inhibition at 10 µg/mL lookup, key: Cc1cc(C)nc(Nc2ccccc2)n1 [PYRIMETHANIL]
Outgoing: 2.6
